study system: DR1 (DRA1*0101 DRB1*0101) (Homo sapiens, UniProt P01903+P01911, A100R/D57E/F55L/F60I/F76Y/I96L/L162R/M171V/P40L/Q125E/R42F/V115G/Y59C)
assay procedure: Competitive binding to MHC-II protein DR1
condition notes: Protein binding IC50 (nM) 0101, 0101
Numbered stars: 1 amine (or outer) side, 2 acyl side, 3 side chain; on linkers, the order of the positions; unused ones are H or OH. Square brackets hold non-standard residues; d marks the D form. Peptide text beside a SMILES is read from it. * marks the point of attachment. Gly(1-amidinopiperidin-4-yl) = N=C(N)N1CCC([C@H](N)C(=O)O)CC1; X1 = CC(C)c1oc([C@H](CO)N[*:1])nc1C(=O)[*:2]; Pro(3R-Ph) = O=C(O)[C@H]1NCC[C@@H]1c1ccccc1; Met(O) = CS(=O)CC[C@H](N)C(=O)O; N(Me)CH2CH2Ph = CN(CCc1ccccc1)*; Tic = O=C(O)[C@@H]1Cc2ccccc2CN1; Cha = N[C@@H](CC1CCCCC1)C(=O)O; X6 = OCCN(CCc1ccccc1)*
measurement label: IC50 (nM)
Express your answer in nM, writing the number without its unit.

**Q:** Consider the compound CC(=O)N[C@@H](CC1CCCCC1)C(=O)N[C@H](C(=O)N1Cc2ccccc2C[C@H]1C(=O)N[C@@H](CC[S+](C)[O-])C(=O)N1CC[C@H](c2ccccc2)[C@H]1C(=O)N[C@@H](CO)c1nc(C(=O)N(C)C)c(C(C)C)o1)C1CCN(C(=N)N)CC1 (stereo partly drawn) [Compound P47] (Ac-[Cha][Gly(1-amidinopiperidin-4-yl)][Tic][Met(O)][Pro(3R-Ph)][X1]-NMe2) and give its measured IC50.
**A:** 330

**Q:** Please look up its IC50: CSCC[C@H](NC(=O)[C@@H]1Cc2ccccc2CN1C(=O)[C@H](CCCNC(=N)N)NC(=O)[C@H](CC1CCCCC1)NC(C)=O)C(=O)N(CCO)CCc1ccccc1 [Compound P85, Ac-Cha-Arg-Tic-Met-N(CH2CH2OH)CH2CH2Ph] (Ac-[Cha]R[Tic]M-X6)
**A:** 1800

**Q:** Reported IC50, compound CSCC[C@H](NC(=O)[C@@H]1Cc2ccccc2CN1C(=O)[C@H](CCCNC(=N)N)NC(=O)[C@H](CC1CCCCC1)NC(C)=O)C(=O)N(C)CCc1ccccc1 [Compound P84, Ac-Cha-Arg-Tic-Met-N(Me)CH2CH2Ph] (Ac-[Cha]R[Tic]M-{N(Me)CH2CH2Ph}) : ____
**A:** 900

====

study system: DR4Dw14 (DRA1*0101 DRB1*0404) (Homo sapiens, UniProt P01903+P01911, A100R/A169T/F76Y/I96L/K127E/L162R/M171V/N62H/P40V/Q125Y/R42H/S133A/S149N/S66Y/V209L/W38E)
assay procedure: Competitive binding to MHC-II protein DR4Dw14
condition notes: 0404; read-out: Protein binding IC50 (nM) 0404
Numbered stars: 1 amine (or outer) side, 2 acyl side, 3 side chain; on linkers, the order of the positions; unused ones are H or OH. Square brackets hold non-standard residues; d marks the D form. Peptide text beside a SMILES is read from it. * marks the point of attachment. ξ: configuration not given here. Gly(1-amidinopiperidin-4-yl) = N=C(N)N1CCC([C@H](N)C(=O)O)CC1; X1 = CC(C)c1oc([C@H](CO)N[*:1])nc1C(=O)[*:2]; Pro(3R-Ph) = O=C(O)[C@H]1NCC[C@@H]1c1ccccc1; N(Me)CH2CH2Ph = CN(CCc1ccccc1)*; Tic = O=C(O)[C@@H]1Cc2ccccc2CN1; Cha = N[C@@H](CC1CCCCC1)C(=O)O; ξDisc = O=C(O)C1NCc2ccccc21; Nle = CCCC[C@H](N)C(=O)O; X2 = OCCOCCN(Cc1ccccc1)*; X3 = OCCOCCN*
For each entry below, report its IC50 value.
Give the quantity in nM, number only.

**Q:** // IC50 lookup, key: CCCC[C@H](NC(=O)[C@@H]1Cc2ccccc2CN1C(=O)[C@H](CCCNC(=N)N)NC(=O)[C@H](CC1CCCCC1)NC(C)=O)C(=O)N(CCOCCO)Cc1ccccc1 [Compound P98, Ac-Cha-Arg-Tic-Nle-N(Bn)CH2CH2OCH2CH2OH] (Ac-[Cha]R[Tic][Nle]-X2)
**A:** 1300

**Q:** May I ask what IC50 has been recorded for CSCC[C@H](NC(=O)C1c2ccccc2CN1C(=O)[C@H](CCCNC(=N)N)NC(=O)[C@H](CC1CCCCC1)NC(C)=O)C(=O)N1CC[C@H](c2ccccc2)[C@H]1C(=O)N[C@@H](CO)c1nc(C(=O)N(C)C)c(C(C)C)o1 (stereo partly drawn) [Compound P40-1] (Ac-[Cha]R[ξDisc]M[Pro(3R-Ph)][X1]-NMe2) ?
**A:** 98

**Q:** Would you mind telling me what IC50 value was observed for CCCC[C@H](NC(=O)C1c2ccccc2CN1C(=O)[C@@H](NC(=O)[C@H](CC1CCCCC1)NC(C)=O)C1CCN(C(=N)N)CC1)C(=O)N(C)Cc1ccccc1 (single isomer, unassigned) [Compound P76-1, Ac-Cha-Gpg-Disc-Nle-N(Me)Bn] ?
**A:** 1400

**Q:** What does the data say about its IC50? Entry: CCCC[C@H](NC(=O)C1c2ccccc2CN1C(=O)[C@@H](NC(=O)[C@H](CC1CCCCC1)NC(C)=O)C1CCN(C(=N)N)CC1)C(=O)N1CC[C@H](c2ccccc2)[C@H]1C(=O)N[C@@H](CO)c1nc(C(=O)N(C)C)c(C(C)C)o1 (stereo partly drawn) [Compound P81-1] (Ac-[Cha][Gly(1-amidinopiperidin-4-yl)][ξDisc][Nle][Pro(3R-Ph)][X1]-NMe2)
**A:** 90

**Q:** Using the record for CCCC[C@H](NC(=O)[C@@H]1Cc2ccccc2CN1C(=O)[C@@H](NC(=O)[C@H](CC1CCCCC1)NC(C)=O)C1CCN(C(=N)N)CC1)C(=O)NCCOCCO [Compound P70, Ac-Cha-Gpg-Tic-Nle-N(H)CH2CH2OCH2CH2OH] (Ac-[Cha][Gly(1-amidinopiperidin-4-yl)][Tic][Nle]-X3) , report its IC50.
**A:** 290

**Q:** Field request: IC50 | item: CCCC[C@H](NC(=O)[C@@H]1Cc2ccccc2CN1C(=O)[C@H](CCCNC(=N)N)NC(=O)[C@H](CC1CCCCC1)NC(C)=O)C(=O)N1CC[C@H](c2ccccc2)[C@H]1C(=O)N[C@@H](CO)c1nc(C(=O)N(C)C)c(C(C)C)o1 [Compound P51] (Ac-[Cha]R[Tic][Nle][Pro(3R-Ph)][X1]-NMe2)
**A:** 210

**Q:** For the compound CCCC[C@H](NC(=O)[C@@H]1Cc2ccccc2CN1C(=O)[C@H](CCCNC(=N)N)NC(=O)[C@H](CC1CCCCC1)NC(C)=O)C(=O)N(C)CCc1ccccc1 [Compound P83, Ac-Cha-Arg-Tic-Nle-N(Me)CH2CH2Ph] (Ac-[Cha]R[Tic][Nle]-{N(Me)CH2CH2Ph}) , what IC50 is on record?
**A:** 11000

====

study system: DR1 (DRA1*0101 DRB1*0101) (Homo sapiens, UniProt P01903+P01911, A100R/D57E/F55L/F60I/F76Y/I96L/L162R/M171V/P40L/Q125E/R42F/V115G/Y59C)
assay procedure: Competitive binding to MHC-II protein DR1
condition notes: Protein binding IC50 (nM) 0101, 0101
Numbered stars: 1 amine (or outer) side, 2 acyl side, 3 side chain; on linkers, the order of the positions; unused ones are H or OH. Square brackets hold non-standard residues; d marks the D form. Peptide text beside a SMILES is read from it. * marks the point of attachment. ξ: configuration not given here. Gly(1-amidinopiperidin-4-yl) = N=C(N)N1CCC([C@H](N)C(=O)O)CC1; X1 = CC(C)c1oc([C@H](CO)N[*:1])nc1C(=O)[*:2]; Pro(3R-Ph) = O=C(O)[C@H]1NCC[C@@H]1c1ccccc1; N(Me)CH2CH2Ph = CN(CCc1ccccc1)*; Tic = O=C(O)[C@@H]1Cc2ccccc2CN1; Cha = N[C@@H](CC1CCCCC1)C(=O)O; NMe(benzyl) = CN(Cc1ccccc1)*; ξDisc = O=C(O)C1NCc2ccccc21; X4 = OCCOCCN(CCc1ccccc1)*; Nle = CCCC[C@H](N)C(=O)O; X2 = OCCOCCN(Cc1ccccc1)*
Label Fulfilled when IC50 is strictly below 400 nM; at or above that, label Not fulfilled.

**Q:** Dear colleague, could you confirm whether IC50 of CSCC[C@H](NC(=O)[C@@H]1Cc2ccccc2CN1C(=O)[C@@H](NC(=O)[C@H](CC1CCCCC1)NC(C)=O)C1CCN(C(=N)N)CC1)C(=O)N(CCOCCO)Cc1ccccc1 [Compound P102, Ac-Cha-Gpg-Tic-Met-N(Bn)CH2CH2OCH2CH2OH] (Ac-[Cha][Gly(1-amidinopiperidin-4-yl)][Tic]M-X2) falls below 400 nM? Thanks.
**A:** Not fulfilled

**Q:** Field: below-cutoff. Rule: recorded IC50 strictly less than 400 nM. Subject: CSCC[C@H](NC(=O)C1c2ccccc2CN1C(=O)[C@H](CCCNC(=N)N)NC(=O)[C@H](CC1CCCCC1)NC(C)=O)C(=O)N1CC[C@H](c2ccccc2)[C@H]1C(=O)N[C@@H](CO)c1nc(C(=O)N(C)C)c(C(C)C)o1 (stereo partly drawn) [Compound P40-1] (Ac-[Cha]R[ξDisc]M[Pro(3R-Ph)][X1]-NMe2)
**A:** Fulfilled

**Q:** Hello, I'm reviewing records and need to know if IC50 of CCCC[C@H](NC(=O)[C@@H]1Cc2ccccc2CN1C(=O)[C@@H](NC(=O)[C@H](CC1CCCCC1)NC(C)=O)C1CCN(C(=N)N)CC1)C(=O)N(CCOCCO)Cc1ccccc1 [Compound P101, Ac-Cha-Gpg-Tic-Nle-N(Bn)CH2CH2OCH2CH2OH] (Ac-[Cha][Gly(1-amidinopiperidin-4-yl)][Tic][Nle]-X2) is below 400 nM. Could you check?
**A:** Not fulfilled

**Q:** Lab note: confirm whether the reported IC50 for this compound is below 400 nM, equality not counting. compound: CCCC[C@H](NC(=O)[C@@H]1Cc2ccccc2CN1C(=O)[C@H](CCCNC(=N)N)NC(=O)[C@H](CC1CCCCC1)NC(C)=O)C(=O)N(C)CCc1ccccc1 [Compound P83, Ac-Cha-Arg-Tic-Nle-N(Me)CH2CH2Ph] (Ac-[Cha]R[Tic][Nle]-{N(Me)CH2CH2Ph})
**A:** Not fulfilled

**Q:** Does the reported IC50 of CCCC[C@H](NC(=O)[C@@H]1Cc2ccccc2CN1C(=O)[C@H](CCCNC(=N)N)NC(=O)[C@H](CC1CCCCC1)NC(C)=O)C(=O)N(CCOCCO)CCc1ccccc1 [Compound P88] (Ac-[Cha]R[Tic][Nle]-X4) stay below 400 nM?
**A:** Not fulfilled

**Q:** hey, is IC50 for CCCC[C@H](NC(=O)C1c2ccccc2CN1C(=O)[C@@H](NC(=O)[C@H](CC1CCCCC1)NC(C)=O)C1CCN(C(=N)N)CC1)C(=O)N1CC[C@H](c2ccccc2)[C@H]1C(=O)N[C@@H](CO)c1nc(C(=O)N(C)C)c(C(C)C)o1 (stereo partly drawn) [Compound P81-1] (Ac-[Cha][Gly(1-amidinopiperidin-4-yl)][ξDisc][Nle][Pro(3R-Ph)][X1]-NMe2) lower than 400 nM or not?
**A:** Fulfilled

**Q:** API: query returns whether the compound falls strictly under 400 nM in IC50. Query: CCCC[C@H](NC(=O)C1c2ccccc2CN1C(=O)[C@H](CCCNC(=N)N)NC(=O)[C@H](CC1CCCCC1)NC(C)=O)C(=O)N(C)Cc1ccccc1 (stereo partly drawn) [Compound P72-1, Ac-Cha-Arg-Disc-Nle-N(Me)Bn] (Ac-[Cha]R[ξDisc][Nle]-{NMe(benzyl)})
**A:** Not fulfilled

**Q:** Given the entry CSCC[C@H](NC(=O)C1c2ccccc2CN1C(=O)[C@H](CCCNC(=N)N)NC(=O)[C@H](CC1CCCCC1)NC(C)=O)C(N)=O (stereo partly drawn) [Compound P12-1, Ac-Cha-Arg-Disc-Met-NH2] (Ac-[Cha]R[ξDisc]M-NH2) , would its reported IC50 be below 400 nM?
**A:** Not fulfilled

// data source = patent US7629318B2
